tested on: HCT-116 colon; assay: NCI tumour cell line growth inhibition, 48 h
Give measured TGI for each item. Keep answers brief.

The cases that follow already have their TGI on record.
COMPOUND | TGI
COc1ccc(-c2n[nH]nc2-c2cc(OC)c(OC)c(OC)c2)cc1 | > 100 µM
CCCCN1C(=O)N(c2ccc(OCC)cc2)C2N(CCCC)C1C(C)(C)C2(C)C (configuration not stated) | > 100 µM
Cc1cccc(N2CCN(C(=S)c3ccc4c(c3)OCO4)CC2)c1 | > 100 µM
COc1nc2ccccc2cc1-c1nc2c(cnn2-c2ccc(Br)cc2)c(=O)[nH]1 | > 50 µM
COC1=CC(=O)c2nc(-c3cccc(C)n3)[nH]c2C1=O | 35.7 µM

Look up TGI for the entries below, preserving their order.
1. CC(C)C(Nc1c2ccccc2nc2ccccc12)C(=O)O (configuration not stated)
2. N=C(N)c1ccc(C(NC(=O)CNS(=O)(=O)c2ccc3ccccc3c2)P(=O)(Oc2ccccc2)Oc2ccccc2)cc1 (configuration not stated)

1: > 100 µM; 2: > 100 µM
